tgt: c-Met (cytoplasmic domain) (Homo sapiens)
Construct: 10 ng/mL c-Met (cytoplasmic domain, Invitrogen Corporation #PV3143); purchased Invitrogen Corporation PV3143
Sequence (P08581 956-1390 limits assumed): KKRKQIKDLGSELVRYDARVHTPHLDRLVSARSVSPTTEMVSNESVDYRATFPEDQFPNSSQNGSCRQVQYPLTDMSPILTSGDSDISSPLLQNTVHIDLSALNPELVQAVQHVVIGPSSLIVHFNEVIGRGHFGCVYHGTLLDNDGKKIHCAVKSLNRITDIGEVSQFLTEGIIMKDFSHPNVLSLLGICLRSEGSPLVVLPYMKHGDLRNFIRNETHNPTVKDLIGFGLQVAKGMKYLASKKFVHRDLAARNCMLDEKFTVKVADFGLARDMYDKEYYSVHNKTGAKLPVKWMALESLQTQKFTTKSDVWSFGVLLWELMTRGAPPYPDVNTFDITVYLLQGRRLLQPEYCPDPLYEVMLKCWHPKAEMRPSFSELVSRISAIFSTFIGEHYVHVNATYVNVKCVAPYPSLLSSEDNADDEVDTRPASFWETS
testMethodNotes: c-Met Kinase Assay (same methods as for ALK, with modifications)
Format: biochemical
conditionInfo: c-Met kinase inhibition, 1 μM ATP (Km level); read-out: cMet Activity
reportedMetric: IC50

Recorded results for 5 compounds are shown here.
>>> result("Cn1ccnc1-c1ccccc1Nc1nc(Nc2ccc3c(c2)CCC(N2CCOCC2)CC3)ncc1Cl (stereo not shown) [Example 218]")
"100 to 1000 nM"
>>> result("CCN1CCc2ccc(Nc3ncc(Cl)c(Nc4cc(Cl)ccc4C(=O)NC)n3)cc2CC1 [Example 33]")
"< 100 nM"
>>> result("CCN1C(=O)CCCc2c(OC)ccc(Nc3ncc(Cl)c(Nc4ccc(N5CCOCC5)cc4OC)n3)c21 [Example 125]")
"> 10000 nM"
>>> result("CNS(=O)(=O)c1ccccc1Nc1nc(Nc2ccc3c(c2)CCCC(=O)N3CC(=O)N2CCN(C)CC2)ncc1Cl [Example 10]")
"< 100 nM"
>>> result("CN1C(=O)CCCc2cc(Nc3ncc(Cl)c(Nc4ccc(N5CCCCC5)cc4C(N)=O)n3)ccc21 [Example 354]")
"< 100 nM"

input: Please report IC50 for the following compound: COc1cc2c(cc1Nc1ncc(Cl)c(N[C@@H]3CCCC[C@H]3NS(C)(=O)=O)n1)CCNC(=O)C2 [Example 263]
output: > 10000 nM

input: For the compound CCN1CCc2c(Nc3ncc(Cl)c(Nc4ccccc4C(=O)NC)n3)ccc(OC)c2CC1 [Example 154] , give its measured IC50 value.
output: > 10000 nM

====

tgt: baculovirus-expressed ALK (Homo sapiens, UniProt Q9UM73)
Construct: host or cells: baculovirus expression system
Sequence (Q9UM73 19-1620): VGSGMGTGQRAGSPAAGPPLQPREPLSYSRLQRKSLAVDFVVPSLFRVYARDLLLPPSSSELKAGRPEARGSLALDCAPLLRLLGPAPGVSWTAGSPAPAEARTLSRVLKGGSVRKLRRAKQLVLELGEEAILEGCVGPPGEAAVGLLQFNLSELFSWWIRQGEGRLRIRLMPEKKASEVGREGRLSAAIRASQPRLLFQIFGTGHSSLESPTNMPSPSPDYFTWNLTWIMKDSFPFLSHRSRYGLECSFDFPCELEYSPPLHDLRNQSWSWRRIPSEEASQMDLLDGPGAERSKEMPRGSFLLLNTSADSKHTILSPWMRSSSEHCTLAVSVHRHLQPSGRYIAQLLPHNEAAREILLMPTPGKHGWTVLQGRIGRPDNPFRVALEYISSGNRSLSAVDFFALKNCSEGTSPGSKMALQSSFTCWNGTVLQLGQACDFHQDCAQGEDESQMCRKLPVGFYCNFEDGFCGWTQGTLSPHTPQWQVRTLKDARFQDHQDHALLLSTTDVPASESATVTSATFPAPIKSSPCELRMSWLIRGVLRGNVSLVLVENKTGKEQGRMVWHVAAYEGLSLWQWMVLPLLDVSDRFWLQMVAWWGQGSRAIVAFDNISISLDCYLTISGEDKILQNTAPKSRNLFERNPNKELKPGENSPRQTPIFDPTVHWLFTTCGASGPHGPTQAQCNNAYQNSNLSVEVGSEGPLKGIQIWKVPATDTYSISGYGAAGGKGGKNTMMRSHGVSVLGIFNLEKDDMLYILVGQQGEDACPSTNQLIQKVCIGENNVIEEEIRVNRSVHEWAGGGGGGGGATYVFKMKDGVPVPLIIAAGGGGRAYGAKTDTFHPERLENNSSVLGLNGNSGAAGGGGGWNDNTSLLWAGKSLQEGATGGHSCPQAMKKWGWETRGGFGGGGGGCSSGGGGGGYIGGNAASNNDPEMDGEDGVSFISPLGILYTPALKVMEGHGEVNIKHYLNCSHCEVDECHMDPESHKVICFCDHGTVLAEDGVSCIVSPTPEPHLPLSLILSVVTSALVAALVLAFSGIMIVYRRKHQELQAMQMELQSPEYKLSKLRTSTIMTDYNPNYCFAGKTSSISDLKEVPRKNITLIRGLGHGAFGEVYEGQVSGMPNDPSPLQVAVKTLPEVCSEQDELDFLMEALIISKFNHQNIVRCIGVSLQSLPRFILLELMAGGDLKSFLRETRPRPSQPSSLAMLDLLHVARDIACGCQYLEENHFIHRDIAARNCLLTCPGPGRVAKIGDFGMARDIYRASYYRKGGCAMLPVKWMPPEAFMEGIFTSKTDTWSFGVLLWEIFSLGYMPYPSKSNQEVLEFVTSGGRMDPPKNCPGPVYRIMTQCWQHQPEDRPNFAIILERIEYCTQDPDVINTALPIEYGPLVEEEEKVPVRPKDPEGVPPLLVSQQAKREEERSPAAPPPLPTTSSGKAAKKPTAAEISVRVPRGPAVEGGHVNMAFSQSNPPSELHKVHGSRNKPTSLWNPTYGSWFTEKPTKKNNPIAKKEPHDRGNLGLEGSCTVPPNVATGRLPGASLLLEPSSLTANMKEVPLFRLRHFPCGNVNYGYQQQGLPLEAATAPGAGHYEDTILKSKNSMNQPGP
testMethodNotes: ALK Kinase Assay (ELISA-type, time-resolved fluorescence)
Type: biochemical
conditionInfo: 1 μM ATP (Km level); read-out: ALK Activity (ALK Kinase Inhibition, IC50)
pIC50: −log10 of the molar value.
reportedMetric: pIC50

Solved entries (count: 8):
>>> result("CCN1C(=O)CCCc2c1ccc(Nc1ncc(Cl)c(Nc3ccc(OC)cc3C(=O)OC(C)C)n1)c2OC")
"5.00 to 6.00"
>>> result("COc1ccc(Nc2nc(Nc3cc4c(cc3OC)CCN(CC(=O)N(C)C)CC4)ncc2Cl)c(NS(C)(=O)=O)c1")
"> 7.00"
>>> result("COCCNC1CCc2ccc(Nc3ncc(Cl)c(Nc4ccccc4S(=O)(=O)N4CCC(O)C4)n3)c(OC)c2CC1 (centres unmarked)")
"> 7.00"
>>> result("COCCN1CCc2cc(Nc3ncc(Cl)c(NC4C5C=CC(C5)C4C(=O)NC(C)C)n3)c(OC)cc2CC1 (centres unmarked)")
"> 7.00"
>>> result("COc1c(Nc2ncc(Cl)c(N[C@H]3[C@@H](C(N)=O)[C@@H]4C=C[C@H]3C4)n2)ccc2c1CCCC(N1CCOCC1)C2 (single isomer, unassigned) [Example 940]")
"> 7.00"
>>> result("NC(=O)C1C2C=CC(C2)C1Nc1nc(Nc2cccc3c2OCCCC3)ncc1Cl (centres unmarked)")
"> 7.00"
>>> result("CC(=O)OCCN1CCSc2ccc(Nc3ncc(Cl)c(N[C@@H]4CCCC[C@H]4NS(C)(=O)=O)n3)cc2C1")
"> 7.00"
>>> result("COc1ccccc1Nc1nc(Nc2ccc3c(c2)CCC(N2CCN(C)CC2)CC3)ncc1Cl (centres unmarked)")
"> 7.00"

input: Tell me its pIC50 given COc1cc2c(cc1Nc1ncc(Cl)c(NC3(CC(N)=O)CCCCC3)n1)CCN(CC(=O)N(C)C)CC2 as the entry.
output: 6.00 to 7.00

input: Report pIC50 for COc1cc2c(cc1Nc1ncc(Cl)c(N[C@H]3[C@@H](C(N)=O)[C@@H]4C=C[C@H]3C4)n1)CCN(CC(F)F)CC2 (relative stereo) [Example 763]
output: > 7.00

input: // fetch pIC50 given entry COCCN1CCc2cc(Nc3ncc(Cl)c(Nc4ccccc4S(=O)(=O)N4CC[C@H](C)C4)n3)c(OC)cc2CC1
output: > 7.00

input: Recall and state the measured pIC50 for CS(=O)(=O)N[C@@H]1CCCC[C@H]1Nc1nc(Nc2ccc3c(c2)CNCCS3(=O)=O)ncc1Cl .
output: 6.00 to 7.00

input: In one line, give reported pIC50 of the entry COc1cc2c(cc1Nc1ncc(Cl)c(Nc3ccc(N(C)C)cc3S(=O)(=O)N(C)C)n1)CCN(CC(=O)N(C)C)CC2 .
output: > 7.00

input: Using the record for COc1ccc(Nc2nc(Nc3ccc4c(c3)C(C)(C)CCC(=O)N4C)ncc2Cl)c(-n2cccn2)c1 , state its measured pIC50.
output: > 7.00
